// data source = paper PMC11480511

Please respond with reported inhibition at 10 µM for every item in the list.
system: HOP-62; assay: NCI single-dose growth inhibition screen; type: cell-based; conditions: Homo sapiens; Non-Small Cell Lung Cancer HOP-62; single dose 10^−5 M
Only the number, expressed in %, is required.

Which measured inhibition at 10 µM value corresponds to O=C(O)c1cn(C2CC2)c2cc(N3CCN(C(=O)CCCN4C(=O)CSC4=O)CC3)c(F)cc2c1=O [3 L] ? 16.8

Which measured inhibition at 10 µM value corresponds to O=C(O)c1cn(C2CC2)c2cc(N3CCN(C(=O)CCCN4C(=O)SC(=Cc5cccc([N+](=O)[O-])c5)C4=O)CC3)c(F)cc2c1=O [3d] ? 5.2
